Documented hIP1 GRPR EC50 across a set of binders
Target: human GRP receptor (human, UniProt P30550 1-384)
Sequence (P30550 whole entry): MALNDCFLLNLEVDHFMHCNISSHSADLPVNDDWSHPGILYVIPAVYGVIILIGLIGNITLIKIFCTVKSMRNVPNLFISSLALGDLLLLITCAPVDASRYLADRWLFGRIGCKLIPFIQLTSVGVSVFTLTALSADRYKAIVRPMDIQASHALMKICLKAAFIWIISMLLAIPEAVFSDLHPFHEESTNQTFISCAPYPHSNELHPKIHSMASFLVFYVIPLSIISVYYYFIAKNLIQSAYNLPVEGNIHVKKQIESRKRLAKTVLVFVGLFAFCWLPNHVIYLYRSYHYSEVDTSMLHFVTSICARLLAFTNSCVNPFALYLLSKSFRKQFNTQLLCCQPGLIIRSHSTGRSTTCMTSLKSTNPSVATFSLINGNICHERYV
Experiment: cell-based or functional assay
Starred links: 1 amine or outer side, 2 acyl side, 3 side chain; linkers in the order of their positions; H or OH if unused. Non-standard residues stand in square brackets, D forms with d. *: point of attachment. Trp(7-Me) = Cc1cccc2c(C[C@H](N)C(=O)O)c[nH]c12; C20 diacid = O=C(O)CCCCCCCCCCCCCCCCCCC(=O)*; d(γGlu) = O=C(O)[C@@H](CCC(=O)[*:2])N[*:1]; C18 diacid = O=C(O)CCCCCCCCCCCCCCCCC(=O)*; γGlu = O=C(O)[C@H](CCC(=O)[*:2])N[*:1]; Palmitoyl = CCCCCCCCCCCCCCCC(=O)*; Nle = CCCC[C@H](N)C(=O)O; AEEA = NCCOCCOCC(=O)O; Aib = CC(C)(N)C(=O)O; βAla = NCCC(=O)O; Sar = CNCC(=O)O
Value expressed in nM; do not type the unit.

The examples below pair each entry with its known result.
- BINDER: "{C20 diacid}-[γGlu][γGlu][AEEA][AEEA]ESQH[Trp(7-Me)]AV[βAla]HL[Nle]-NH2 (SMILES CCCC[C@H](NC(=O)[C@H](CC(C)C)NC(=O)[C@H](Cc1c[nH]cn1)NC(=O)CCNC(=O)[C@@H](NC(=O)[C@H](C)NC(=O)[C@H](Cc1c[nH]c2c(C)cccc12)NC(=O)[C@H](Cc1c[nH]cn1)NC(=O)[C@H](CCC(N)=O)NC(=O)[C@H](CO)NC(=O)[C@H](CCC(=O)O)NC(=O)COCCOCCNC(=O)COCCOCCNC(=O)CC[C@H](NC(=O)CC[C@H](NC(=O)CCCCCCCCCCCCCCCCCCC(=O)O)C(=O)O)C(=O)O)C(C)C)C(N)=O) [Peptide 257]"
  NUMERIC_RESULT: 12.5
- BINDER: "{C18 diacid}-[d(γGlu)][AEEA][AEEA][AEEA][AEEA]GNH[Trp(7-Me)]AV[dA]HL-NH2 (SMILES Cc1cccc2c(C[C@H](NC(=O)[C@H](Cc3c[nH]cn3)NC(=O)[C@H](CC(N)=O)NC(=O)CNC(=O)COCCOCCNC(=O)COCCOCCNC(=O)COCCOCCNC(=O)COCCOCCNC(=O)CC[C@@H](NC(=O)CCCCCCCCCCCCCCCCC(=O)O)C(=O)O)C(=O)N[C@@H](C)C(=O)N[C@H](C(=O)N[C@H](C)C(=O)N[C@@H](Cc3c[nH]cn3)C(=O)N[C@@H](CC(C)C)C(N)=O)C(C)C)c[nH]c12) [Peptide 78]"
  NUMERIC_RESULT: 14
- BINDER: "{C18 diacid}-[d(γGlu)][AEEA][AEEA][Aib]NHWAV[dA]HL[Nle]-NH2 (SMILES CCCC[C@H](NC(=O)[C@H](CC(C)C)NC(=O)[C@H](Cc1c[nH]cn1)NC(=O)[C@@H](C)NC(=O)[C@@H](NC(=O)[C@H](C)NC(=O)[C@H](Cc1c[nH]c2ccccc12)NC(=O)[C@H](Cc1c[nH]cn1)NC(=O)[C@H](CC(N)=O)NC(=O)C(C)(C)NC(=O)COCCOCCNC(=O)COCCOCCNC(=O)CC[C@@H](NC(=O)CCCCCCCCCCCCCCCCC(=O)O)C(=O)O)C(C)C)C(N)=O) [Peptide 74]"
  NUMERIC_RESULT: 25.5

Q) Please indicate hIP1 GRPR EC50 recorded for Palmitoyl-[γGlu][AEEA][AEEA]GNHWAV[dA]HL[Nle]-NH2 (SMILES CCCCCCCCCCCCCCCC(=O)N[C@@H](CCC(=O)NCCOCCOCC(=O)NCCOCCOCC(=O)NCC(=O)N[C@@H](CC(N)=O)C(=O)N[C@@H](Cc1c[nH]cn1)C(=O)N[C@@H](Cc1c[nH]c2ccccc12)C(=O)N[C@@H](C)C(=O)N[C@H](C(=O)N[C@H](C)C(=O)N[C@@H](Cc1c[nH]cn1)C(=O)N[C@@H](CC(C)C)C(=O)N[C@@H](CCCC)C(N)=O)C(C)C)C(=O)O) [Peptide 96]
A) 1.58

Q) Return hIP1 GRPR EC50 (reported value) for this binder: {C18 diacid}-[γGlu][AEEA][AEEA]GNHW[dA]V[dA]HL[Nle]-NH2 (SMILES CCCC[C@H](NC(=O)[C@H](CC(C)C)NC(=O)[C@H](Cc1c[nH]cn1)NC(=O)[C@@H](C)NC(=O)[C@@H](NC(=O)[C@@H](C)NC(=O)[C@H](Cc1c[nH]c2ccccc12)NC(=O)[C@H](Cc1c[nH]cn1)NC(=O)[C@H](CC(N)=O)NC(=O)CNC(=O)COCCOCCNC(=O)COCCOCCNC(=O)CC[C@H](NC(=O)CCCCCCCCCCCCCCCCC(=O)O)C(=O)O)C(C)C)C(N)=O) [Peptide 106]
A) 467

Q) Indicate the recorded hIP1 GRPR EC50 value for this binder: {C18 diacid}-[γGlu][AEEA][AEEA]GNH[Trp(7-Me)]AV[dA]HL[Nle][Sar]-NH2 (SMILES CCCC[C@H](NC(=O)[C@H](CC(C)C)NC(=O)[C@H](Cc1c[nH]cn1)NC(=O)[C@@H](C)NC(=O)[C@@H](NC(=O)[C@H](C)NC(=O)[C@H](Cc1c[nH]c2c(C)cccc12)NC(=O)[C@H](Cc1c[nH]cn1)NC(=O)[C@H](CC(N)=O)NC(=O)CNC(=O)COCCOCCNC(=O)COCCOCCNC(=O)CC[C@H](NC(=O)CCCCCCCCCCCCCCCCC(=O)O)C(=O)O)C(C)C)C(=O)N(C)CC(N)=O) [Peptide 104]
A) 221

Q) Assign hIP1 GRPR EC50 to the following record: Palmitoyl-[d(γGlu)][AEEA][AEEA][AEEA][AEEA]GNHWAV[dA]HL[Nle]-NH2 (SMILES CCCCCCCCCCCCCCCC(=O)N[C@H](CCC(=O)NCCOCCOCC(=O)NCCOCCOCC(=O)NCCOCCOCC(=O)NCCOCCOCC(=O)NCC(=O)N[C@@H](CC(N)=O)C(=O)N[C@@H](Cc1c[nH]cn1)C(=O)N[C@@H](Cc1c[nH]c2ccccc12)C(=O)N[C@@H](C)C(=O)N[C@H](C(=O)N[C@H](C)C(=O)N[C@@H](Cc1c[nH]cn1)C(=O)N[C@@H](CC(C)C)C(=O)N[C@@H](CCCC)C(N)=O)C(C)C)C(=O)O) [Peptide 54]
A) 3.12
